- tgt: T1, recombinant human GPC3 protein (human, UniProt P51654 25-563)
- T1 construct: also called human GPC3 full-length protein; recombinant GPC3 protein
- assay.details: BLI (Octet), antibody on Protein A probe
koff values by entry
Lab book: enter the figure in s⁻¹, no units written.

See these solved cases before continuing.
binder	reported.value
5D6 (antibody, V domains shown, Chimeric IgG: murine variable regions on human IgG1 CH1-CH3 and an antibody light chain constant region) VH: QVQLQQSGAELVRPGASVKLSCKALGYTFADYEIHWVKQTPVHGLEWIGAIHPGSGGTAYNQTFEGKATLTADKSSTTAYMELSSLTSEDSAVYYCTRYYSFAYWGQGTLVTVSA VL: DVLMTQTPLSLPVSLGDQASISCRSSQSLVHSNGNTYLHWYLQKPGQSPKLLIYKVSNRFSGVPDRFSGSGSGTDFTLKISRVEAEDLGVYFCSQSTHVPLTFGAGTKLELK	0.00292
49G8 (antibody, V domains shown, Chimeric human IgG1; also called 49G8 chimeric antibody; Mab 49G8) VH: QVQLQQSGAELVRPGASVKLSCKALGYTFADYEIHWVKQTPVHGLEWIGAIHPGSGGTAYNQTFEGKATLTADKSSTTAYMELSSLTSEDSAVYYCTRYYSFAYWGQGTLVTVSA VL: DVVMTQTPLSLPVSLGDQASISCRSSQSIVHSNGNTYLEWYLQKPGQSPKLLIYKVSNRFSGVPDRFSGSGSGTDFTLKISRVEAEDLGVYFCLQVTHVPLTFGAGTKLELK	0.000231

Could you now consider this next binder?
Enquiry: Bench note: what koff did 47B6 (antibody, V domains shown, Chimeric human IgG1) VH: QVQLQQSGAELMKPGASVKISCKATGYTFSSYWIEWVKQRPGHGLEWIGEILPGSGSTNYNEKFKGKATFTADTSSNTAYMQLSSLTSEDSAVYYCARGYWGQGTLVTVSA VL: DIVMTQAPLSLPVSLGDQASISCRSSQSLVHSNGNTYLHWYLQKPGQSPKLLIYKVSNRFSGVPDRFSGSGSGTDFTLKISRVEAEDLGVYFCSQSTHVPRTFGGGTKLEIK show?
Return: 0.00149
